assay: in vivo; details: Sprague-Dawley, rat, csf, iv, 2 (umol/kg)/hr
Here, each record is paired with measured Kp uu at 4 h data.
Measurement Name: Kp uu at 4 h

* CN(Cc1cnc2nc(N)nc(N)c2n1)c1ccc(C(=O)N[C@@H](CCC(=O)O)C(=O)O)cc1 [METHOTREXATE] | 0.007
* CC(C)Nc1cccnc1N1CCN(C(=O)c2cc3cc(NS(C)(=O)=O)ccc3[nH]2)CC1 | 0.051
* CSc1ccc2c(c1)N(CCC1CCCCN1C)c1ccccc1S2 (stereo not given) | 0.21
* O=C(O)c1ccccc1O | 0.16
* CO/N=C(\C(=O)N[C@@H]1C(=O)N2C(C(=O)O)=C(COC(C)=O)CS[C@H]12)c1csc(N)n1 | 0.007
* O=C1CN(/N=C/c2ccc([N+](=O)[O-])o2)C(=O)N1 | 0.0099
* Nc1c2c(nc3ccccc13)CCCC2 | 0.67
* C=CCOc1ccccc1OCC(O)CNC(C)C (stereo not given) | 0.1
* Nc1nnc(-c2cccc(Cl)c2Cl)c(N)n1 | 0.86
* COc1ccc2c(c1)c(CC(=O)O)c(C)n2C(=O)c1ccc(Cl)cc1 | 0.17
* COc1ccc2c3c1O[C@H]1[C@@H](O)C=C[C@H]4[C@@H](C2)N(C)CC[C@@]341 | 0.54
* COc1cccc(C2(O)CCCCC2CN(C)C)c1 (stereo not given) | 0.71
* C=CCc1ccccc1OCC(O)CNC(C)C (stereo not given) | 0.33
* CO[C@@]1(NC(=O)C(C(=O)O)c2ccc(O)cc2)C(=O)N2C(C(=O)O)=C(CSc3nnnn3C)CO[C@@H]21 (stereo not given in full) | 0.02
* CCn1cc(C(=O)O)c(=O)c2cc(F)c(N3CCNCC3)cc21 | 0.018
